FYI, the data here is from ChEMBL document CHEMBL2016487.

Provide the reported clearance of each item.
Test: Clearance in rat at 5 mg/kg
Type: ADME, organism-based
Design: dose 5 mg/kg
Conditions: in vivo

{"compound": "CCC(=O)c1cc(NCCN2CCCC2)c(C)c(N2CCN(c3ncnc4[nH]nc(Br)c34)CC2)c1", "clearance": "49 mL/min/kg"}

In: Answer with reported clearance of `Cc1c(NCCN2CCCC2)cc(OCC(C)C)cc1N1CCN(c2ncnc3[nH]nc(Br)c23)CC1`
Out: 79.5 mL/min/kg

====

Please go through the items and note down their log10 of IC50.
Target: Ribosomal protein S6 kinase beta-1 (Homo sapiens, UniProt P23443)
Sequence (P23443 whole entry): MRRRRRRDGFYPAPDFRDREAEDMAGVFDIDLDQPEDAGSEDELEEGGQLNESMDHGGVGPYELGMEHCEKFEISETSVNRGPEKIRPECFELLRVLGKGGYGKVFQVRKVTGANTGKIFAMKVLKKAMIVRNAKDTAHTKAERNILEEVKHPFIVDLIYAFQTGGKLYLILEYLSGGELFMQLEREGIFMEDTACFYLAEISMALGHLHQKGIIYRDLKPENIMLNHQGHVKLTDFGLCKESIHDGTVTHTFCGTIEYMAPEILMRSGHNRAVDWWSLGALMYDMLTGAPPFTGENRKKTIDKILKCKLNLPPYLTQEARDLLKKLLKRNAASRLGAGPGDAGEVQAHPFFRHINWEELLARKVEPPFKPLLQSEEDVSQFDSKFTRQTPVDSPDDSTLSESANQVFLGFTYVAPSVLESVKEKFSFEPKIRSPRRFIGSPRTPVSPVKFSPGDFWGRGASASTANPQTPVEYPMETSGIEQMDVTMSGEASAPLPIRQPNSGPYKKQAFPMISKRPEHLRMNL
Test: Inhibition of p70S6K-mediated ribosomal protein S6 phosphorylation in human PC3 cells after 3 hrs by chemiluminescence assay
Format: cell-based, PC-3
In plain terms, each number is the log10 of measured IC50 in nM.

{"compound": "CCc1n[nH]c2ncnc(N3CCN(c4cc(Cl)cc(NCCN(C)C)c4C)CC3)c12", "log10 of IC50": 2.32}

List the reported log10 of IC50 of each compound below.
1. Cc1c(NCCN(C)C)cc(Cl)cc1N1CCN(c2ncnc3[nH]nc(Br)c23)CC1
2. Cc1c(NCCN2CCCC2)cc(OCC(C)C)cc1N1CCN(c2ncnc3[nH]nc(Br)c23)CC1

Out:
[2.15, 2.33]

Give log10 of IC50 for all compounds that follow.
1. Cc1c(NCCN2CCCC2)cc(Cl)cc1N1CCN(c2ncnc3[nH]nc(Br)c23)CC1
2. CCC(=O)c1cc(NCCN2CCCC2)c(C)c(N2CCN(c3ncnc4[nH]nc(Br)c34)CC2)c1
3. Cc1c(NCCN2CCCC2)cc(C(=O)Nc2ccccc2)cc1N1CCN(c2ncnc3[nH]nc(Br)c23)CC1

Out:
1: 2.65; 2: 1.40; 3: 2.28

Give log10 of IC50 for each of the items listed below.
1. Cc1c(NCCN2CCCC2)cc(CCC(C)(C)C)cc1N1CCN(c2ncnc3[nH]nc(Br)c23)CC1
2. Cc1c(NCCN2CCCC2)cc(C(=O)CCC(F)(F)F)cc1N1CCN(c2ncnc3[nH]nc(Br)c23)CC1 [XL-418]
3. COC(=O)c1cc(NCCN2CCCC2)c(C)c(N2CCN(c3ncnc4[nH]nc(Br)c34)CC2)c1

Out:
[2.31, 1.74, 1.72]
